Target of assay: Kappa-type opioid receptor (Homo sapiens, UniProt P41145); also: assay procedure not described here
Sequence (P41145 whole entry): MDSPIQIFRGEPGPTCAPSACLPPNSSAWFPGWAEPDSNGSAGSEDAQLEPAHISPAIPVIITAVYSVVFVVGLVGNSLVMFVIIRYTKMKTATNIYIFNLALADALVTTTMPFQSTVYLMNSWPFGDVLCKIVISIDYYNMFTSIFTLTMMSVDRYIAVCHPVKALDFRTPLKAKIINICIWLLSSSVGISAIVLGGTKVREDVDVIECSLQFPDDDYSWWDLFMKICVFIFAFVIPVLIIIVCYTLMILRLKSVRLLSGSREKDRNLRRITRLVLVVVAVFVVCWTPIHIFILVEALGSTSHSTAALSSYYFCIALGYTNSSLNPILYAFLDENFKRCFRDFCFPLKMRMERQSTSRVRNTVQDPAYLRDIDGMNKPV
Quantity measured: AC50

Would you mind telling me what AC50 value was observed for [H]/N=C(/N)N/C(=N/[H])NCCc1ccccc1 ? > 10 µM

Another molecule to check: Cc1onc(-c2ccccc2)c1-c1ccc(S(N)(=O)=O)cc1 > 10 µM

Another molecule to check: C[C@H]1c2cccc(O)c2C(=O)C2=C(O)[C@]3(O)C(=O)C(C(N)=O)=C(O)[C@@H](N(C)C)[C@@H]3[C@@H](O)[C@@H]21 > 10 µM

Another molecule to check: CCOC(=O)c1cncn1[C@H](C)c1ccccc1 [ETOMIDATE] > 10 µM

Another molecule to check: CC1(C)S[C@@H]2[C@H](NC(=O)[C@H](N)c3ccccc3)C(=O)N2[C@H]1C(=O)OCOC(=O)[C@@H]1N2C(=O)C[C@H]2S(=O)(=O)C1(C)C > 30 µM

Another molecule to check: CCOC(=O)C1=C[C@]2(CC)CCCN3CCc4c(n1c1ccccc41)[C@@H]32 > 30 µM

Another molecule to check: O=C1CN=C(c2ccccn2)c2cc(Br)ccc2N1 > 10 µM

Another molecule to check: CC(C)c1nc(N(C)S(C)(=O)=O)nc(-c2ccc(F)cc2)c1/C=C/[C@@H](O)C[C@@H](O)CC(=O)O > 30 µM

Another molecule to check: CC(C)[C@H](N)C(=O)OCC(CO)OCn1cnc2c(=O)nc(N)[nH]c21 (some centres not stated) > 30 µM

Another molecule to check: CCOC(=O)C1=C(C)NC(C)=C(C(=O)OC)C1c1cccc([N+](=O)[O-])c1 (configuration not stated) > 10 µM

Another molecule to check: C=C[C@H]1C[N@@]2CC[C@H]1C[C@@H]2[C@@H](O)c1ccnc2ccc(OC)cc12 4 µM

Another molecule to check: CCCCCC(=O)O[C@]1(C(C)=O)CC[C@H]2[C@@H]3CCC4=CC(=O)CC[C@]4(C)[C@H]3CC[C@@]21C [HYDROXYPROGESTERONE CAPROATE] > 30 µM

Another molecule to check: CC(N)C12CC3CC(CC(C3)C1)C2 (configuration not stated) > 10 µM

Another molecule to check: Cc1cccc(N2CC(CO)OC2=O)c1 (configuration not stated) > 30 µM

Another molecule to check: Nc1ncn([C@H]2C[C@H](O)[C@@H](CO)O2)c(=O)n1 > 30 µM

Another molecule to check: O=C1CN(/N=C/c2ccc(-c3ccc([N+](=O)[O-])cc3)o2)C(O)=N1 > 10 µM

Another molecule to check: CC(C(=O)O)c1ccc(-c2ccccc2)c(F)c1 (configuration not stated) > 10 µM
